Target: T1, His-tagged mouse CD38 (ACRO Biosystems #CD8-M5223) (mouse, UniProt P56528 45-304)
T1 construct: bought recombinant protein with His tag; also called Murine
T1 sequence (looked up): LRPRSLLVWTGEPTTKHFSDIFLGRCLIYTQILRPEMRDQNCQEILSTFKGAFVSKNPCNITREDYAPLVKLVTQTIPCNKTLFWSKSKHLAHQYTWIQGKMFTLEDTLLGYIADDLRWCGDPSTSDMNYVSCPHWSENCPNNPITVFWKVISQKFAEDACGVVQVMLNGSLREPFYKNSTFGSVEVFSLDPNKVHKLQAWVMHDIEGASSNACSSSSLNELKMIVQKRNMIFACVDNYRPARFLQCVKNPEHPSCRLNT
Assay: ELISA, coated His-CD38
The following binders are listed with their measured ELISA 1 ug/ml values.
Metric name: ELISA 1 ug/ml

Binder: 40566p1.A8 (scFv, V domains shown, tested as scFv-Fc supernatant) VH: DVQLVESGGGVVRPGESLRLSCAASGFTFDNYDMTWVRQAPGEGLEWVSFISSRGTFTYYTDSVKGRFTISRDNSKNTLYLQMNSLRAEDTAIYYCAKDSGEYYFFDYWGLGTLVTVSS VL: EIVMTQSPATLSVSPGERATFSCRASQSVNSKLAWYQQKPGQAPRLLIYGASRRATGIPDRFSGSGSGTEFTLTISSLQSEDFAVYYCQQYYDWPPLTFGGGTKVEIK
Metric name: ELISA 1 ug/ml
Value: 1.9
--
Binder: 40566p1.F8 (scFv, V domains shown, tested as scFv-Fc supernatant) VH: DVQLVESGGGVVRPGESLRLSCAASGFTFDNYDMTWVRQAPGEGLEWVSFISSRGTFAYYTDSVKGRFTISRDNSKNTLYLQMNSLRAEDTAIYYCTKDSGEYYFFDYWGLGTLVTVSS VL: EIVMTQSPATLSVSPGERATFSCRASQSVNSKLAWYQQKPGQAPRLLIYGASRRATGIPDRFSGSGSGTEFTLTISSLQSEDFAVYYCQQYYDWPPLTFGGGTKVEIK
Metric name: ELISA 1 ug/ml
Value: 1.88
